Molecular target: Alpha-1D adrenergic receptor (Homo sapiens)
Sequence (P25100 whole entry): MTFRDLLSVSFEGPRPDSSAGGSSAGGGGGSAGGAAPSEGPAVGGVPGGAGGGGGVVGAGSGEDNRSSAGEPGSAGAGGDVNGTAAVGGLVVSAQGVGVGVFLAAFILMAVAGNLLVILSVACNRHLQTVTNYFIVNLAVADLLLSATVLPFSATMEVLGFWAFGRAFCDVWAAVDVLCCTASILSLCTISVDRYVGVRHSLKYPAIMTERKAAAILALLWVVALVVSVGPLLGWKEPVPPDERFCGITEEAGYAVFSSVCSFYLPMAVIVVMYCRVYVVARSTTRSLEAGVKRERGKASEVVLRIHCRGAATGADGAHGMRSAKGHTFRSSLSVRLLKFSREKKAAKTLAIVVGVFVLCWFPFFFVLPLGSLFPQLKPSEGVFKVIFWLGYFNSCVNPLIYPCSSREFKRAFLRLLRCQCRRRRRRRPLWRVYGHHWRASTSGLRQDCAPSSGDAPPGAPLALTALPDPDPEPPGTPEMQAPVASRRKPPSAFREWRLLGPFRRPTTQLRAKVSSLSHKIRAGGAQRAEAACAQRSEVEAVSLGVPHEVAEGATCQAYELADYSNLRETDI
Strictly below 2000 nM in Ki: Condition met. Otherwise: Condition not met.

COMPOUND: COC(=O)C1(c2ccccc2)CCN(CCCNC(=O)C(c2ccc(C)cc2)c2ccc(C)cc2)CC1
QUALITATIVE LABEL: Condition met
//
COMPOUND: Cc1ccccc1C1(C#N)CCN(CCCNC(=O)C(c2ccc(F)c(F)c2)C(C)C)CC1 (single isomer, unassigned; (+))
QUALITATIVE LABEL: Condition not met
//
COMPOUND: Cc1ccccc1C1(C#N)CCN(CCCNC(=O)C(c2ccc(F)c(F)c2)C(C)C)CC1 (stereo in doubt; 28)
QUALITATIVE LABEL: Condition met
//
COMPOUND: COC(=O)C1(c2ccccc2)CCN(CCCNC(=O)CCc2ccc([N+](=O)[O-])cc2)CC1
QUALITATIVE LABEL: Condition met
//
COMPOUND: COC(=O)C1(c2ccccc2)CCN(CCCNC(=O)Cc2ccc([N+](=O)[O-])cc2)CC1
QUALITATIVE LABEL: Condition not met
//
COMPOUND: COC(=O)C1(c2ccccc2)CCN(CCCNC(=O)C(C)c2ccc([N+](=O)[O-])cc2)CC1 (stereo not drawn)
QUALITATIVE LABEL: Condition met
//
COMPOUND: Cc1ccccc1C1(C#N)CCN(CCCNC(=O)C(c2ccc(F)cc2)C(C)C)CC1 (stereo not drawn)
QUALITATIVE LABEL: Condition not met
//
COMPOUND: COC(=O)C1(c2ccccc2)CCN(CCCNC(=O)Cc2ccc(C)cc2)CC1
QUALITATIVE LABEL: Condition not met

---

Molecular target: Alpha-1A adrenergic receptor (Homo sapiens, UniProt P35348)
pKi: −log10 of the molar value.

COMPOUND: Cc1ccc(C(C(=O)NCCCN2CCC(C#N)(c3ccccc3Cl)CC2)c2ccc(C)cc2)cc1
pKi: 9.00

COMPOUND: Cc1ccccc1C1(C#N)CCN(CCCNC(=O)C(c2ccc(F)c(F)c2)C(C)C)CC1 (single isomer, unassigned; (+))
pKi: 8.70

COMPOUND: Cc1ccc(C(C(=O)NCCCN2CCC(c3ccccn3)CC2)c2ccc(C)cc2)cc1
pKi: 7.57

COMPOUND: Cc1ccccc1C1(C#N)CCN(CCCNC(=O)C(c2ccc(F)c(F)c2)C(C)C)CC1 (single isomer, unassigned; (-))
pKi: 7.30

---

Target: UniProt P35348
Sequence (P35348 whole entry): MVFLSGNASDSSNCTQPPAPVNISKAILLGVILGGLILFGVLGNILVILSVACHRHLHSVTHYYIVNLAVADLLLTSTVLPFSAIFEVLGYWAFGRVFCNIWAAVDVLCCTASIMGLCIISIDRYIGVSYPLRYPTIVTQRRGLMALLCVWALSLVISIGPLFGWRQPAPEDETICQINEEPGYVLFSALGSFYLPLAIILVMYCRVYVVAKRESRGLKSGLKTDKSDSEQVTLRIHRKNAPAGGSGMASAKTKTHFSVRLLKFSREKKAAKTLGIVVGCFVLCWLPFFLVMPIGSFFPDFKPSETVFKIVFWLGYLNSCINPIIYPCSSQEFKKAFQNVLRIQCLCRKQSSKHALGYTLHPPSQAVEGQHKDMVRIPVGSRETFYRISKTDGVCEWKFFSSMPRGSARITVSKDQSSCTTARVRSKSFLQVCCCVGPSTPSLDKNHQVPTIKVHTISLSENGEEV
We begin with a simple list: items and their reported Ki.

COMPOUND: Cc1ccc(C(C(=O)NCCCN2CCC(C#N)(c3ccccc3C)CC2)C(C)C)cc1 (centres undefined)
Ki / nM: 7.4
--
COMPOUND: COC(=O)C1(c2ccccc2)CCN(CCCNC(=O)Cc2ccc(C)cc2)CC1
Ki / nM: 74
--
COMPOUND: COC(=O)C1(c2ccccc2)CCN(CCCNC(=O)C(C)c2ccc([N+](=O)[O-])cc2)CC1 (centres undefined)
Ki / nM: 47
--
COMPOUND: Cc1ccccc1C1(C#N)CCN(CCCNC(=O)C(c2ccc(F)cc2)C(C)C)CC1 (centres undefined)
Ki / nM: 24
--
COMPOUND: N#CC1(c2ccccc2)CCN(CCCNC(=O)C(c2ccccc2)c2ccccc2)CC1
Ki / nM: 28
--
COMPOUND: COC(=O)C1(c2ccccc2)CCN(CCCNC(=O)CCc2ccc([N+](=O)[O-])cc2)CC1
Ki / nM: 240
--
COMPOUND: Cc1ccccc1C1(C#N)CCN(CCCNC(=O)C(c2ccc(Cl)cc2)C(C)C)CC1 (centres undefined)
Ki / nM: 6.4
--
COMPOUND: Cc1ccccc1C1(C#N)CCN(CCCNC(=O)C(c2ccc(F)c(F)c2)C(C)C)CC1 (stereo in doubt; 28)
Ki / nM: 2
--
COMPOUND: Cc1ccccc1C1(C#N)CCN(CCCNC(=O)C(c2cccc(F)c2)C(C)C)CC1 (centres undefined)
Ki / nM: 3.4
--
COMPOUND: Cc1ccc(C(C(=O)NCCCN2CCN(c3ccccc3C)CC2)c2ccc(C)cc2)cc1
Ki / nM: 1.1
--
COMPOUND: COC(=O)C1(c2ccccc2)CCN(CCNC(=O)CCc2ccc([N+](=O)[O-])cc2)CC1
Ki / nM: 380
--
COMPOUND: COC(=O)C1(c2ccccc2)CCN(CCCNC(=O)Cc2ccc([N+](=O)[O-])cc2)CC1
Ki / nM: 75
--
COMPOUND: CC(C)C(C(=O)NCCCN1CCC(C#N)(c2ccccc2)CC1)c1ccccc1 (racemic)
Ki / nM: 72
--
COMPOUND: Cc1ccc(C(C(=O)NCCCN2CCC(c3ccccc3)CC2)c2ccc(C)cc2)cc1
Ki / nM: 8.8
--
COMPOUND: Cc1ccc(C(C(=O)NCCCN2CCC(C(N)=O)(c3ccccc3)CC2)c2ccc(C)cc2)cc1
Ki / nM: 570
--
COMPOUND: COC(=O)C1(c2ccccc2)CCN(CCCNC(=O)C(c2ccc(C)cc2)c2ccc(C)cc2)CC1
Ki / nM: 5.1
--
COMPOUND: COc1ccccc1C1(C#N)CCN(CCCNC(=O)C(c2ccc(C)cc2)c2ccc(C)cc2)CC1
Ki / nM: 7.5
--
COMPOUND: N#CC1(c2ccccc2)CCN(CCCNC(=O)C(c2ccccc2)C2CCCC2)CC1 (racemic)
Ki / nM: 50
--
COMPOUND: Cc1ccc(C(C(=O)NCCCN2CCC(C#N)(c3ccccc3C)CC2)c2ccc(C)cc2)cc1
Ki / nM: 1.3

---

A set of compounds tested on UniProtKB P35368, with measured Ki:
TEST READOUT: Ki (nM)

COMPOUND: Cc1ccccc1C1(C#N)CCN(CCCNC(=O)C(c2ccc(F)cc2)C(C)C)CC1 (stereo not drawn)
REPORTED VALUE: 960
--
COMPOUND: Cc1ccccc1C1(C#N)CCN(CCCNC(=O)C(c2ccc(F)c(F)c2)C(C)C)CC1 (single isomer, unassigned; (+))
REPORTED VALUE: 1400
--
COMPOUND: Cc1ccccc1C1(C#N)CCN(CCCNC(=O)C(c2cccc(F)c2)C(C)C)CC1 (stereo not drawn)
REPORTED VALUE: 680
--
COMPOUND: N#CC1(c2ccccc2)CCN(CCCNC(=O)C(c2ccccc2)C2CCCCC2)CC1 (racemic)
REPORTED VALUE: 1100
--
COMPOUND: CC(C)C(C(=O)NCCCN1CCC(C#N)(c2ccccc2)CC1)c1ccccc1 (racemic)
REPORTED VALUE: 1200
--
COMPOUND: Cc1ccccc1C1(C#N)CCN(CCCNC(=O)C(c2ccc(F)c(F)c2)C(C)C)CC1 (single isomer, unassigned; (-))
REPORTED VALUE: 1200
--
COMPOUND: COC(=O)C1(c2ccccc2)CCN(CCCNC(=O)CCc2ccc([N+](=O)[O-])cc2)CC1
REPORTED VALUE: 910
--
COMPOUND: Cc1ccccc1C1(C#N)CCN(CCCNC(=O)C(c2ccc(F)c(F)c2)C(C)C)CC1 (stereo in doubt; 28)
REPORTED VALUE: 900
